Target: hCB1R (Homo sapiens, UniProt P21554)
Sequence (P21554 whole entry): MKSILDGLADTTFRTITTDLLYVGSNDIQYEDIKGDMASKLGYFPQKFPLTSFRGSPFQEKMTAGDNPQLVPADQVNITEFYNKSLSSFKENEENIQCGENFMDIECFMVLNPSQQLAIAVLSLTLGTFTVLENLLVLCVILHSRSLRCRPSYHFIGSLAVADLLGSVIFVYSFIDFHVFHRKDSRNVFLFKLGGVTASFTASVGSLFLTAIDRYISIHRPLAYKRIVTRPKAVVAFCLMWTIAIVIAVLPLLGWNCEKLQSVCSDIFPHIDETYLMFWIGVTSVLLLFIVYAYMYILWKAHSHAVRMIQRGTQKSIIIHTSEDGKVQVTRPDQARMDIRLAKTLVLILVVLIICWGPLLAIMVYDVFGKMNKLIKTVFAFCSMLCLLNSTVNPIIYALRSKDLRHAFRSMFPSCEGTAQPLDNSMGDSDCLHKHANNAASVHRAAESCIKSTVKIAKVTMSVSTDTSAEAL
Assay: Calcium mobilization assay, antagonist mode against CP55,940
Assay type: cell-based
Design: expressed in transfected cells; host or cells: CHO-RD-HGA16 cells (parental line from Molecular Devices)
Details: CHO cells expressing human CB1R; against CP55,940 (100 nM); mean ± SEM; read-out: hCB1R Calcium assay IC50
MEASURED_PROPERTY: pIC50
pIC50 is a log-scale quantity: -log10 of the concentration expressed in molar.

Use the examples below as a reference point.
CC(=O)c1cccc(-c2ccc(NC(=O)Nc3ccc(Cl)cc3)s2)c1 :: 6.97
O=C(Nc1ccc(Cl)cc1)Nc1csc(-c2ccccc2)c1 :: 7.22
O=C(Nc1ccc(Cl)cc1)Nc1ccc(-c2ccc(F)cc2)s1 :: 7.40
CS(=O)(=O)c1cccc(-c2ccc(NC(=O)Nc3ccc(Cl)cc3)s2)c1 :: 6.30

I'm curious: which pIC50 was measured for COc1ccccc1-c1ccc(NC(=O)Nc2ccc(Cl)cc2)s1 tested on hCB1R (Homo sapiens, UniProt P21554)?
7.24

* * *

Molecular target: hCB1R (Homo sapiens)
Experiment: Calcium mobilization assay, antagonist mode against CP55,940
Format: cell-based
Design: expressed in transfected cells; host or cells: CHO-RD-HGA16 cells (parental line from Molecular Devices)
The label Y is reserved for IC50 strictly under 0.1 µM; N covers values equal to or above it.

CN(C)c1cccc(CCNC(=O)Nc2ccc(Cl)cc2)c1 :: N

is_below(IC50, 0.1 µM) for O=C(NCCc1c(F)c(F)c(F)c(F)c1F)Nc1ccc(Cl)cc1 ?
Y

is_below(IC50, 0.1 µM) for Cc1ccc(CCNC(=O)Nc2ccc(Cl)cc2)cc1 ?
N

is_below(IC50, 0.1 µM) for O=C(NCCc1ccc(Br)cc1)Nc1ccc(Cl)cc1 ?
N

is_below(IC50, 0.1 µM) for O=C(NCCc1ccccc1F)Nc1ccc(Cl)cc1 ?
N

* * *

Tested on: P-gp (MDR1)
Test: Bidirectional MDCK-MDR1 permeability assay
Format: in vitro ADME
Settings: dog, pH 7.4; MDCK-MDR1, 10 μM test article
MEASURED_PROPERTY: Papp B→A at 90 min, 10 µM

Papp B→A at 90 min, 10 µM lookup needed for O=C(NCCc1cccc(Cl)c1)Nc1ccc(Cl)cc1 , thanks.
> 15 ×10⁻⁶ cm/s

* * *

Assay: Metabolic stability in rat liver microsomes
Format: in vitro ADME
Conditions: pH 7.4, mean ± SD, read-out: Clearance
MEASURED_PROPERTY: microsomal CLint
Please answer in the form of a number followed by its unit of measurement.

O=C(Nc1ccc(Cl)cc1)Nc1ccc(-c2ccc(F)cc2F)s1 :: 19.3 µL/min/mg

microsomal CLint lookup needed for O=C(NCCc1cccc(Cl)c1)Nc1ccc(Cl)cc1 , thanks.
144 µL/min/mg

* * *

Molecular target: hCB1R (Homo sapiens, UniProt P21554)
Assay: Calcium mobilization assay, antagonist mode against CP55,940
Format: cell-based
Parameters: expressed in transfected cells; host or cells: CHO-RD-HGA16 cells (parental line from Molecular Devices)
Conditions: CHO cells expressing human CB1R; against CP55,940 (100 nM); mean ± SEM; read-out: hCB1R Calcium assay IC50
The following molecules are shown together with reported pIC50 values.
pIC50 is a log-scale quantity: -log10 of the concentration expressed in molar.

O=C(NCCCc1ccccc1)Nc1ccc(Cl)cc1 [Compound 37] :: 5.43
CC(=O)NCCNC(=O)Nc1ccc(Cl)cc1 [Compound 84] :: 5.74

Shift focus to the following entry.
pIC50 lookup needed for O=C(Nc1ccc(Cl)cc1)Nc1cc(-c2ccccc2)cs1 [Compound 12] , thanks.
7.43

* * *

Biological target: UniProtKB P21554
Test: Calcium mobilization assay, antagonist mode against CP55,940
Assay type: cell-based
Parameters: expressed in transfected cells; host or cells: CHO-RD-HGA16 cells (parental line from Molecular Devices)
Settings: CHO cells expressing human CB1R; against CP55,940 (100 nM); mean ± SEM; read-out: hCB1R Calcium assay IC50
MEASURED_PROPERTY: IC50 (nM)
Please state the figure in nM; there is no need to write the unit.

COC(=O)c1cccc(-c2ccc(NC(=O)Nc3ccc(Cl)cc3)s2)c1 [Compound 27] :: 345
O=C(Nc1ccc(Cl)cc1)Nc1ncc(-c2ccccc2)s1 [Compound 14] :: 79
COc1ccc(-c2cccc(N3CCCC3)n2)cc1NC(=O)Nc1ccc(Cl)cc1 [Compound 6] :: 1270
Cc1ccc(CCNC(=O)Nc2ccc(Cl)cc2)o1 [Compound 79] :: 255
Cc1cccc(-c2ccc(NC(=O)Nc3ccc(Cl)cc3)s2)c1 [Compound 32] :: 48

I'm curious: which IC50 was measured for O=C(Nc1ccc(Cl)cc1)Nc1ccc(-c2ccc(Cl)cc2)s1 [Compound 23] tested on UniProtKB P21554?
43

I'm curious: which IC50 was measured for O=C(Nc1ccc(Cl)cc1)Nc1ccc(-c2cccc(Cl)c2)s1 [Compound 22] tested on UniProtKB P21554?
40

I'm curious: which IC50 was measured for O=C(NCC(F)(F)c1ccccc1)Nc1ccc(Cl)cc1 [Compound 39] tested on UniProtKB P21554?
1580

I'm curious: which IC50 was measured for O=C(Nc1ccc(Cl)cc1)Nc1ccc(-c2ccncc2)s1 [Compound 35] tested on UniProtKB P21554?
79

I'm curious: which IC50 was measured for O=C(Nc1ccc(Cl)cc1)N[C@@H]1C[C@H]1c1ccccc1 (racemic) [Compound 15] tested on UniProtKB P21554?
1220

I'm curious: which IC50 was measured for COc1ccc(-c2ccc(NC(=O)Nc3ccc(Cl)cc3)s2)cc1 [Compound 31] tested on UniProtKB P21554?
31

I'm curious: which IC50 was measured for O=C(Nc1ccc(Cl)cc1)Nc1ccc(-c2ccc(Cl)c(Cl)c2)s1 [Compound 24] tested on UniProtKB P21554?
111

I'm curious: which IC50 was measured for O=C(Nc1ccc(Cl)cc1)Nc1ccc(-c2ccc(F)cc2F)s1 [Compound 20] tested on UniProtKB P21554?
22

I'm curious: which IC50 was measured for COc1cccc(-c2ccc(NC(=O)Nc3ccc(Cl)cc3)s2)c1 [Compound 30] tested on UniProtKB P21554?
61

I'm curious: which IC50 was measured for O=C(Nc1ccc(Cl)cc1)Nc1ccc(-c2cc(Cl)cc(Cl)c2)s1 [Compound 25] tested on UniProtKB P21554?
92

* * *

The following molecules are shown together with reported log10 of IC50 values.
Biological target: hCB1R (Homo sapiens)
Test: Calcium mobilization assay, antagonist mode against CP55,940
Format: cell-based
Set-up: expressed in transfected cells; host or cells: CHO-RD-HGA16 cells (parental line from Molecular Devices)
Settings: CHO cells expressing human CB1R; against CP55,940 (100 nM); mean ± SEM; read-out: hCB1R Calcium assay IC50
Note: values are log10 of IC50 expressed in nM.

O=C(Nc1ccc(Cl)cc1)Nc1ccc(-c2cccc(F)c2)s1 :: 1.59
O=C(NCC1(c2ccccc2)CC1)Nc1ccc(Cl)cc1 :: 3.71
O=C(Nc1ccc(Cl)cc1)Nc1ccc(-c2cccnc2)s1 :: 2.03
O=C(Nc1ccc(Cl)cc1)Nc1ccc(-c2ccccc2Cl)s1 :: 1.32
O=C(NC[C@@H]1C[C@H]1c1ccccc1)Nc1ccc(Cl)cc1 (relative stereo) :: 3.42

log10 of IC50 lookup needed for O=C(NCCc1ccccn1)Nc1ccc(Cl)cc1 , thanks.
3.56

log10 of IC50 lookup needed for CN(C)c1cccc(-c2ccc(NC(=O)Nc3ccc(Cl)cc3)s2)c1 , thanks.
1.95

log10 of IC50 lookup needed for O=C(Nc1ccc(Cl)cc1)Nc1ccc(-c2ccccc2)s1 , thanks.
0.85

* * *

The following compounds are shown together with reported IC50 values.
Target: hCB1R (Homo sapiens, UniProt P21554)
Assay: [35S]GTPγS binding assay in HEK cells stably expressing human CB1R
Type: biochemical
Set-up: expressed in transfected cells; host or cells: HEK (HEK293) cells, membranes
Conditions: [CP] = 100 nM, mean (95% confidence interval), read-out: hCB1R [35S]GTPγS binding assay IC50
Please state the figure in nM; there is no need to write the unit.

O=C(Nc1ccc(Cl)cc1)Nc1ccc(-c2ccc(F)cc2)s1 [Compound 18] :: 537

IC50 lookup needed for Cc1cccc(-c2ccc(NC(=O)Nc3ccc(Cl)cc3)s2)c1 [Compound 32] , thanks.
1180

IC50 lookup needed for CN(C)c1cccc(-c2ccc(NC(=O)Nc3ccc(Cl)cc3)s2)c1 [Compound 33] , thanks.
5020

IC50 lookup needed for O=C(Nc1ccc(Cl)cc1)Nc1ncc(-c2ccccc2)s1 [Compound 14] , thanks.
604

IC50 lookup needed for CC(=O)c1cccc(-c2ccc(NC(=O)Nc3ccc(Cl)cc3)s2)c1 [Compound 26] , thanks.
3430

IC50 lookup needed for COC(=O)c1cccc(-c2ccc(NC(=O)Nc3ccc(Cl)cc3)s2)c1 [Compound 27] , thanks.
2350

The reported measurements were obtained from patent US20220332695A1.
